# system.tested: Fuc(a1-2)Gal(b1-4)GlcNAc(b1-3)Gal(b1-4)GlcNAc(b1-3)Gal(b1-4)GlcNAc
# protocol: glycan array binding signal (z-score within array); higher = stronger binding
# condition: glycan notation: IUPAC condensed, linker removed
About 410 targets per protein were measured; listed, in parts, are those with the strongest signals and a random draw of the rest.
Reported values of glycan array binding signal (z-score) for individual entries
assay.readout: glycan array binding signal (z-score)

[[record]]
binder = "SBD-G4S3-Fc (protein) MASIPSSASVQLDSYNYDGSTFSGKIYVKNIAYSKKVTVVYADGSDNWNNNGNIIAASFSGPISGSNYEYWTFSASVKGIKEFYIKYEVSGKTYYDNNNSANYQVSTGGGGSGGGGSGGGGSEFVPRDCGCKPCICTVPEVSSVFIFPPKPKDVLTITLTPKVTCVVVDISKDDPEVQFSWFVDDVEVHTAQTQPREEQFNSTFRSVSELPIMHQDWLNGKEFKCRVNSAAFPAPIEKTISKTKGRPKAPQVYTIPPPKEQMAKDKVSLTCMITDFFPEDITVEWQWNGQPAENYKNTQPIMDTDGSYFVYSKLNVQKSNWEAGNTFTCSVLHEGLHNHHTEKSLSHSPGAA"
reported_measurement = -0.034

[[record]]
binder = "LlpB (Pseudomonas fluorescens) (protein) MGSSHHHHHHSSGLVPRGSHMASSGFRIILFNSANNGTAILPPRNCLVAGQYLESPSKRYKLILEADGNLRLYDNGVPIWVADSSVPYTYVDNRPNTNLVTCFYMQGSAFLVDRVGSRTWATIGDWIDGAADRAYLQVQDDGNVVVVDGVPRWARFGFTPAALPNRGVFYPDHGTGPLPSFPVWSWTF"
reported_measurement = 2.58

[[record]]
binder = "RVL (Remusatia vivipara), B5LYJ9 (protein) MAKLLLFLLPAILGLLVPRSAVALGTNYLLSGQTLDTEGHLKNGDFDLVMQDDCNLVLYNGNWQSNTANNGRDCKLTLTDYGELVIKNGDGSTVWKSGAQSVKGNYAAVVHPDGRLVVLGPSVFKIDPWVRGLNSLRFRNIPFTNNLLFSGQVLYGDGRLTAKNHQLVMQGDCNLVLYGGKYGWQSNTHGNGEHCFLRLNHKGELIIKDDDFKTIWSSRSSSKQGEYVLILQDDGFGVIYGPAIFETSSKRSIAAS"
reported_measurement = -0.272

[[record]]
binder = "CLC (Homo sapiens), Q9UBD9 (protein) MDLRAGDSWGMLACLCTVLWHLPAVPALNRTGDPGPGPSIQKTYDLTRYLEHQLRSLAGTYLNYLGPPFNEPDFNPPRLGAETLPRATVDLEVWRSLNDKLRLTQNYEAYSHLLCYLRGLNRQAATAELRRSLAHFCTSLQGLLGSIAGVMAALGYPLPQPLPGTEPTWTPGPAHSDFLQKMDDFWLLKELQTWLWRSAKDFNRLKKKMQPPAAAVTLHLGAHGF"
reported_measurement = -0.886

[[record]]
binder = "Gal 2 (Canis lupus) (protein) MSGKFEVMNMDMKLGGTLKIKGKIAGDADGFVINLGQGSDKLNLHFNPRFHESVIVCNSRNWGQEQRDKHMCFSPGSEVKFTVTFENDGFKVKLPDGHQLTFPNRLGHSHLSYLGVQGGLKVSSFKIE"
reported_measurement = -0.156


Origin of the recorded values: the supplement of paper PMC8728848
